Reference source for all entries: patent US9884839B2

TARGET OR TEST SYSTEM: mouse 17β-HSD1 (Mus musculus, UniProt P51656)
Construct: made in house; host or cells: HEK293 cells, transient transfection; 1,000 g supernatant of the cell lysate
Sequence (P51656 1-344): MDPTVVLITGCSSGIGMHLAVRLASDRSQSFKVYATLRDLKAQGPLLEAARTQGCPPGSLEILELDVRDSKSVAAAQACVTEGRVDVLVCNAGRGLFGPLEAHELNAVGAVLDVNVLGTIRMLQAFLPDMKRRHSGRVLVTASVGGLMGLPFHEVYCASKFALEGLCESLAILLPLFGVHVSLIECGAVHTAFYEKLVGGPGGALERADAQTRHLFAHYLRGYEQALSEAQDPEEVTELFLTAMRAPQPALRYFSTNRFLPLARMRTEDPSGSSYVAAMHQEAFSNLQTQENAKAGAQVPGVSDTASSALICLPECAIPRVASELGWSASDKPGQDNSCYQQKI
TEST: Inhibition of mouse 17β-HSD1 (recombinant, HEK293 lysate)
Format: biochemical
MEASUREMENT CONDITIONS: read-out: Inhibition @ 1 μM m17β-HSD1
MEASURE: inhibition at 1 µM (%)

(P) O=C(c1ccc(-c2cncc(F)c2)s1)c1cc(F)c(F)c(O)c1F [Compound 39]
(Q) Cc1cc(-c2ccc(C(=O)c3cccc(O)c3)s2)ccc1O [Compound F1, reference compound]
Given the listed items, does P or Q have the lesser reported inhibition at 1 µM? # respond with the chosen item's label
P
(P: 9%, Q: 18%)

----------
TARGET OR TEST SYSTEM: mouse 17β-HSD1 (Mus musculus, UniProt P51656)
Construct: made in house; host or cells: HEK293 cells, transient transfection; 1,000 g supernatant of the cell lysate
TEST: Inhibition of mouse 17β-HSD1 (recombinant, HEK293 lysate)
Type: biochemical
MEASUREMENT CONDITIONS: Table 7, unit μM; read-out: IC50 m17β-HSD1
MEASURE: IC50 (µM)
Number only, in µM; omit the unit.

Cc1cc(-c2ccc(C(=O)c3cccc(O)c3C)s2)cc(C)c1O [G, reference compound] has a reported IC50 of 35.5

----------
TARGET OR TEST SYSTEM: human 17β-HSD2 (Homo sapiens, UniProt P37059)
Construct: 17β-HSD2 was obtained from the microsomal fraction; from tissue; host or cells: human placenta, microsomal fraction
Sequence (P37059 whole entry): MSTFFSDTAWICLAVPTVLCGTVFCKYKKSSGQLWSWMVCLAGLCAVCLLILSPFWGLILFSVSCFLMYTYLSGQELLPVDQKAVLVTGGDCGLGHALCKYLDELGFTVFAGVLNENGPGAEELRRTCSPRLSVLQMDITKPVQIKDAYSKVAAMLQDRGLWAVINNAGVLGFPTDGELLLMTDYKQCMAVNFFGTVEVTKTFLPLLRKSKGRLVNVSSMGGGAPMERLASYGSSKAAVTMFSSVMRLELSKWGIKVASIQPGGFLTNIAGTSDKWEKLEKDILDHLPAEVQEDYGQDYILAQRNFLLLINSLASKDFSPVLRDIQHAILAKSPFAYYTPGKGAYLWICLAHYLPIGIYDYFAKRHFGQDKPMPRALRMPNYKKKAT
TEST: Inhibition of human 17β-HSD2 (conversion of [3H]-E2 to E1)
Assay type: biochemical
MEASUREMENT CONDITIONS: read-out: IC50 [nM] h17β-HSD2
MEASURE: IC50 (nM)

Consider the following illustrative entries.
COMPOUND	REPORTED RESULT
Cc1c(O)cccc1C(=O)c1ccc(-c2ccc(F)cc2F)s1 [B, reference compound]	300
CC(C)Oc1ccc(-c2ccc(C(=O)c3c(F)ccc(O)c3F)s2)cc1C#N [Compound 18]	19
O=C(c1ccc(-c2cncc(F)c2)s1)c1cc(F)c(F)c(O)c1F [Compound 39]	18
COc1c(C)cc(-c2ccc(C(=O)c3cc(F)c(F)c(O)c3F)s2)cc1C [Compound 46]	2.3
O=C(c1ccc(-c2cccc(Cl)c2)s1)c1c(F)ccc(O)c1F [Compound 11]	10
COc1c(Cl)cc(-c2ccc(C(=O)c3c(F)ccc(O)c3F)s2)cc1Cn1ccnn1 [Compound 31]	9
O=C(c1ccc(-c2cccc(CO)c2)s1)c1cc(F)c(F)c(O)c1F [Compound 47]	4.4
COc1c(Cl)cc(-c2ccc(C(=O)c3c(F)ccc(O)c3F)s2)cc1Cl [Compound 15]	41
Cc1cc(-c2ccc(C(=O)c3cc(F)c(F)c(O)c3C)s2)cc(C)c1O [Compound 72]	159
COc1c(Cl)cc(-c2ccc(C(=O)c3c(F)ccc(O)c3F)s2)cc1CN1CCN(C(C)=O)CC1 [Compound 28]	21

(P) Cc1cc(-c2ccc(C(=O)c3cc(F)c(F)c(O)c3F)s2)cc(C)c1O [Compound 50]
(Q) O=C(c1ccc(-c2cc(Cl)c(O)c(Cl)c2)s1)c1c(F)ccc(O)c1F [Compound 23]
Consider P and Q . Which of these has its IC50 at a higher number? Write down the label attached to your selection.
Q
(Q: 39 nM, P: 1.3 nM)

(P) Cc1cc(-c2ccc(C(=O)c3cccc(O)c3)s2)ccc1O [Compound F1, reference compound]
(Q) O=C(c1ccc(-c2cc(Cl)c(O)c(Cl)c2)s1)c1cc(F)c(F)c(O)c1F [Compound 49]
(R) Nc1cccc(-c2ccc(C(=O)c3cc(F)c(F)c(O)c3F)s2)c1 [Compound 35]
(S) COc1c(Cl)cc(-c2ccc(C(=O)c3cc(F)c(F)c(O)c3F)s2)cc1Cl [Compound 45]
Rank the items in ascending order with respect to IC50. State the ranking by listing the labels in the requested order.
S, R, Q, P
